# Tested Target: FGFR1 kinase domain (Homo sapiens, UniProt P11362, C488A/C584S)
# Construct: Human FGFR1 consisting of residues Ala458-Glu765; made in house; host or cells: Escherichia coli, co-expressed with PTP1B
# Sequence (P11362 458-765 C488A/C584S): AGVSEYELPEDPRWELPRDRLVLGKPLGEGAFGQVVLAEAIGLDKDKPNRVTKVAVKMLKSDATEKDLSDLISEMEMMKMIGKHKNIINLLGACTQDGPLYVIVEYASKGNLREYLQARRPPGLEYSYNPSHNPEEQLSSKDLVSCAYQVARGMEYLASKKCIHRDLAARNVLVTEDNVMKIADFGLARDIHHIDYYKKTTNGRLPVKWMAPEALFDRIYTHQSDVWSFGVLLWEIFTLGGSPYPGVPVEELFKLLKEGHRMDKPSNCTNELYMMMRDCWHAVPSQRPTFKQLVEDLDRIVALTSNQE
# Test Name: Isothermal titration calorimetry (ITC) of inhibitors binding to FGFR1
# Settings: ITC, 298 K
Reported Metric: Kd (nM)
Value expressed in nM; do not type the unit.

Looking up CCN(CC)CCCNc1ncc2cc(-c3cc(OC)cc(OC)c3)c(NC(=O)NC(C)(C)C)nc2n1 [PDA] , I see its Kd listed as 8.8

---

# Tested Target: FGFR1 kinase domain (Homo sapiens, UniProt P11362, C488A/C584S)
# Construct: Human FGFR1 consisting of residues Ala458-Glu765; made in house; host or cells: Escherichia coli, co-expressed with PTP1B
# Test Name: SPR kinetic analysis of inhibitors binding to FGFR1 kinase domain
# Settings: SPR, 298 K, pH 7.4; read-out: KD (koff/kon)
Reported Metric: Kd (nM)
Response body: numeric value in nM, unit text excluded.

# Kd of CCN(CC)CCCNc1ncc2cc(-c3cc(OC)cc(OC)c3)c(NC(=O)NC(C)(C)C)nc2n1 [PDA] = 5.7
